assay: Microplate spectrophotometric method (DCYA assay), fluorescence end-point; settings: false positive
Structures can show the parent of a compound that is named as a salt.
MEASURED_PARAMETER: DCYA binary classification: FP

Some solved entries appear below for comparison.
COMPOUND	DATA_VALUE
Clc1ccccc1	0
C=CC(=O)OCC [Ethyl acrylate]	0
CC1=C(C=O)C(C)(C)CC=C1	0
CC(O)C(=O)O (stereo not drawn)	0
O=Cc1ccccc1	0

Record DCYA binary classification: FP per entry; entries follow.
1. CCC/C=C/C=O [trans-2-Hexenal]
2. CC(=O)C(=O)CC(C)C
3. CC(C=O)Cc1ccc(C(C)(C)C)cc1 (stereo not drawn)

[0, 0, 0]

Record DCYA binary classification: FP per entry; entries follow.
1. CC(C)=CCCC(C)=CC=O
2. CCCCBr
3. CCC=CC=CC=O
4. O=C1C=CC(=O)C=C1
5. O=C(O)C(=O)O
6. O=C(OCc1ccccc1)c1ccccc1 [Benzyl benzoate]
7. O=[N+]([O-])c1ccc(Cl)c([N+](=O)[O-])c1
8. CC/C=C\CCCCC=O [cis-6-Nonenal]

1: 0; 2: 0; 3: 0; 4: 0; 5: 1; 6: 0; 7: 0; 8: 0

Record DCYA binary classification: FP per entry; entries follow.
1. COc1cc(C=O)ccc1O
2. O=C1CCO1
3. O=c1c(-c2ccccc2)c1-c1ccccc1

1: 0; 2: 0; 3: 0

Record DCYA binary classification: FP per entry; entries follow.
1. O=C(O)C(O)C(O)C(=O)O (stereo not drawn)
2. O=c1ccc2ccccc2o1
3. C=C(C)C1CC=C(C=O)CC1 (stereo not drawn)

1. 0
2. 0
3. 0

Record DCYA binary classification: FP per entry; entries follow.
1. C=C1C(=O)O[C@@H]2/C=C(\C)CC/C=C(\C)CC[C@@H]12 [Costunolide]
2. C=C(C)[C@@H]1CC=C(C)C(=O)C1
3. CCOC(=O)/C=C\C(=O)OCC [Diethyl maleate]
4. CC=CC(=O)CC
5. O=C(O)c1ccccc1O

[0, 0, 0, 0, 0]

---

assay: NMR method: depletion of electrophile signal on reaction with DCYA; details: conversion of test chemical at 90 min; 1 equiv. DCYA, 0.1 equiv. DBN, CDCl3
For each record, write down the corresponding NMR Method conversion.
Be sure to follow the number with its unit.

MOLECULE	MEASURED_PARAMETER	DATA_VALUE
C=C(C)[C@@H]1CCC2=CC(=O)C[C@@H](C)[C@]2(C)C1	NMR Method conversion	0%
CC1=C(C=O)C(C)(C)CC=C1	NMR Method conversion	4%
C=C(C)C1CC=C(C=O)CC1 (stereo not drawn)	NMR Method conversion	28%
OCCc1ccc(O)c(O)c1 [3-Hydroxytyrosol]	NMR Method conversion	6%

Record NMR Method conversion per entry; entries follow.
1. C=CC(=O)OCC [Ethyl acrylate]
2. Oc1ccc(O)cc1 [p-Hydroquinone]

93%
5%

---

test: NMR method: depletion of electrophile signal on reaction with DCYA; settings: based on depletion of electrophile signal at 30 min

MOLECULE	NMR Classification
C=C(C)[C@@H]1CC=C(C)C(=O)C1	Weak
Oc1ccc(O)cc1 [p-Hydroquinone]	Non^$
CC1=C(C=O)C(C)(C)CC=C1	Non

These measurements were taken from patent US10261017B2.
